Assayed System: T1, human IL2Ra (human, UniProt P01589 22-240, limits assumed)
T1 construct: bought protein, coated on the plate; also called hIL2RA; IL-2 receptor alpha
T1 sequence (looked up): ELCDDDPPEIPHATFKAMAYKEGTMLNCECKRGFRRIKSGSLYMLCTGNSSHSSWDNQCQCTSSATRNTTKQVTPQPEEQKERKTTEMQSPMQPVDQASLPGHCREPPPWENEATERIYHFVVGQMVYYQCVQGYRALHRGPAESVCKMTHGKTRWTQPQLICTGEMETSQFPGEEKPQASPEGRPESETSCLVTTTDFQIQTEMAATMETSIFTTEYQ
Procedure Details: IL2Ra direct binding ELISA, signal ratio to isotype control
Test Readout: hIL2RA ELISA Binding: Ratio to Isotpye (ratio)
Express your answer in ratio, writing the number without its unit.

Worked cases, hIL2RA ELISA Binding: Ratio to Isotpye given:
Binder: TPP-26299 (antibody, V domains shown) VH: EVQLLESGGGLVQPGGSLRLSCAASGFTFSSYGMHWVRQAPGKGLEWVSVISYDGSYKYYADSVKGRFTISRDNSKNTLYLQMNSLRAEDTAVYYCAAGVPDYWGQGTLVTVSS VL: QSVLTQPPSASGTPGQRVTISCTGSSSNIGAGYDVHWYQQLPGTAPKLLIYSNNERPSGVPDRFSGSKSGTSASLAISGLRSEDEADYYCAAWDDSLYGPVFGGGTKLTVL
Quantitative Readout: 96
//
Binder: TPP-26294 (antibody, V domains shown) VH: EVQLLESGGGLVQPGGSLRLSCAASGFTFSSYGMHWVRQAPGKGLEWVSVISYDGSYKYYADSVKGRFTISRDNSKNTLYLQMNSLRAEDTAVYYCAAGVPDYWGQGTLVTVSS VL: QSVLTQPPSASGTPGQRVTISCTGSSSNIGAAYDVHWYQQLPGTAPKLLIYSNNERPSGVPDRFSGSKSGTSASLAISGLRSEDEADYYCAAWDDSLNGPVFGGGTKLTVL
Quantitative Readout: 275

Which hIL2RA ELISA Binding: Ratio to Isotpye reading was recorded for the binder TPP-26318 (antibody, V domains shown) VH: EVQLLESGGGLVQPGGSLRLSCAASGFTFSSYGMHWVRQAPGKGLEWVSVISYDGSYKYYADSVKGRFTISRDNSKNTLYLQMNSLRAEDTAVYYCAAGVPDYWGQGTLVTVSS VL: QSVLTQPPSASGTPGQRVTISCTGSSSNIGAGYFVHWYQQLPGTAPKLLIYSNNERPSGVPDRFSGSKSGTSASLAISGLRSEDEADYYCAAWDDSLNGPVFGGGTKLTVL ? 267
